Parameter MIC: see the listing below.
# Tested on: Candida albicans
# ASSAY_INFO: In vitro Anti-Candida activity, dilutions in Sabouraud's Dextrose Agar (Table III)
# Type: cell-based
# SETTINGS: 48 h, strain Fix, after 48 hours
# unit: µg/mL | format: bare number

NCc1[nH]c2cc(Br)c(Cl)cc2c1-c1ccccc1 [D]	75
NCc1[nH]c2ccc(Cl)cc2c1-c1ccc(Cl)cc1Cl [E]	37.5
NCc1[nH]c2ccc(Cl)cc2c1-c1c(F)cccc1F [B]	75
NCc1[nH]c2ccc(Cl)cc2c1-c1ccccc1F [A]	75

Now take the following compound into account.
Query: Field request: MIC | item: NCc1[nH]c2ccc(Cl)cc2c1-c1ccccc1 [C]
Result: 75
